Target: UniProt:Q28997
Experiment: cAMP assay in CHO cells transfected with the porcine beta-2 adrenoceptor (DiscoveRx Hit Hunter cAMP II)
Conditions: CHO cells transfected with porcine beta-2 adrenoceptor, 30 minutes incubation with compound
I'd be grateful if you could share measured EC50 for these entries.
Lab note: write values as number then unit, every time.

Lookup result for CC(CCc1cccc2cc[nH]c12)N[C@@H]1CCn2c(=O)[nH]c3cccc(c32)[C@H]1O (single isomer, unassigned) [Example 38b] ; measured EC50: 0.9 nM

Lookup result for CC(CCc1cnc(O)s1)N[C@@H]1CCn2c(=O)[nH]c3cccc(c32)[C@H]1O (single isomer, unassigned) ; measured EC50: 4.7 nM

Lookup result for C[C@@H](CCc1c[nH]c2ccccc12)N[C@@H]1CCn2c(=O)[nH]c3cccc(c32)[C@H]1O (racemic) ; measured EC50: 143 nM

Lookup result for CC(CCc1c[nH]c2ccc(Cl)cc12)N[C@@H]1CCn2c(=O)[nH]c3cccc(c32)[C@H]1O (single isomer, unassigned) [Example 21b] ; measured EC50: 11 nM

----------
I'd be grateful if you could share measured EC50 for these entries.
Biological target: bovine beta-2 adrenoceptor (Bos taurus, UniProt Q28044)
Sequence (Q28044 whole entry): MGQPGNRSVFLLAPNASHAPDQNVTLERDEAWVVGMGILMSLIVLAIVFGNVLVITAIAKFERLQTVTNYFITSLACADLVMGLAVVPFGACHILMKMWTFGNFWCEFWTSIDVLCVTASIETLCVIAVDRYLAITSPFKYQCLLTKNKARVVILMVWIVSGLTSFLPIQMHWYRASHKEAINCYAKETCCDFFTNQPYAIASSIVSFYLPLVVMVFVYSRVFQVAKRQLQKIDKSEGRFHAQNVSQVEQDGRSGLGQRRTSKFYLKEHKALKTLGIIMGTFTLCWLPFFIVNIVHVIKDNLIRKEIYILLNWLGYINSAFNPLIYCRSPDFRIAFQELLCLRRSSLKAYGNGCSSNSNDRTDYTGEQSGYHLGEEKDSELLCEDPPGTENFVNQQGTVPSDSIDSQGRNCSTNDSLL
Assay: cAMP assay in CHO cells transfected with the bovine beta-2 adrenoceptor (DiscoveRx Hit Hunter cAMP II)
Settings: CHO cells transfected with bovine beta-2 adrenoceptor, 30 minutes incubation with compound

Lookup result for CC(CCc1c[nH]c2cnccc12)N[C@@H]1CCn2c(=O)[nH]c3cccc(c32)[C@H]1O (single isomer, unassigned) [Example 57] ; measured EC50: 5.7 nM

Lookup result for CC(CCc1c[nH]c2ccccc12)NC1CCn2c(=O)[nH]c3cccc(c32)C1O (single isomer, unassigned) [Example 4a] ; measured EC50: 3.2 nM

Lookup result for Cc1nn(C)c(C)c1CCC(C)N[C@@H]1CCn2c(=O)[nH]c3cccc(c32)[C@H]1O (single isomer, unassigned) [Example 9a] ; measured EC50: 402 nM

Lookup result for CC(CCc1cncs1)N[C@@H]1CCn2c(=O)[nH]c3cccc(c32)[C@H]1O (single isomer, unassigned) [Example 6b] ; measured EC50: 3.6 nM

Lookup result for CCOC(=O)c1[nH]c2cc(Cl)ccc2c1CCN[C@@H]1CCn2c(=O)[nH]c3cccc(c32)[C@H]1O (racemic) ; measured EC50: 546 nM

Lookup result for Cc1nc(C)c(CCC(C)N[C@@H]2CCn3c(=O)[nH]c4cccc(c43)[C@H]2O)s1 (single isomer, unassigned) [Example 23a] ; measured EC50: 153 nM

Lookup result for CC(CCc1cc(F)cc2cc[nH]c12)N[C@@H]1CCn2c(=O)[nH]c3cccc(c32)[C@H]1O (mixture of isomers) [Example 1b] ; measured EC50: 0.7 nM

Lookup result for CC(CCc1cccc2cc[nH]c12)N[C@@H]1CCn2c(=O)[nH]c3cccc(c32)[C@H]1O (single isomer, unassigned) [Example 38b] ; measured EC50: 0.8 nM

Lookup result for CC(CCc1c[nH]c2ccc(C#N)cc12)N[C@@H]1CCn2c(=O)[nH]c3cccc(c32)[C@H]1O (mixture of isomers) ; measured EC50: 83 nM

Lookup result for CC(CCc1ccc2[nH]ccc2c1)N[C@@H]1CCn2c(=O)[nH]c3cccc(c32)[C@H]1O (single isomer, unassigned) ; measured EC50: 16 nM

Lookup result for CC(CCc1cncs1)N[C@@H]1CCn2c(=O)[nH]c3cccc(c32)[C@H]1O (single isomer, unassigned) [Example 49] ; measured EC50: 4.7 nM

Lookup result for CC(CCc1c[nH]c2ccc(F)cc12)N[C@@H]1CCn2c(=O)[nH]c3cccc(c32)[C@H]1O (mixture of isomers) ; measured EC50: 1.1 nM

Lookup result for O=c1[nH]c2cccc3c2n1CC[C@@H](NCCc1c[nH]c2ccccc12)[C@@H]3O (racemic) [Example 40b] ; measured EC50: 550 nM

----------
Target: porcine beta-2 adrenoceptor (Sus scrofa, UniProt Q28997)
Sequence (Q28997 whole entry): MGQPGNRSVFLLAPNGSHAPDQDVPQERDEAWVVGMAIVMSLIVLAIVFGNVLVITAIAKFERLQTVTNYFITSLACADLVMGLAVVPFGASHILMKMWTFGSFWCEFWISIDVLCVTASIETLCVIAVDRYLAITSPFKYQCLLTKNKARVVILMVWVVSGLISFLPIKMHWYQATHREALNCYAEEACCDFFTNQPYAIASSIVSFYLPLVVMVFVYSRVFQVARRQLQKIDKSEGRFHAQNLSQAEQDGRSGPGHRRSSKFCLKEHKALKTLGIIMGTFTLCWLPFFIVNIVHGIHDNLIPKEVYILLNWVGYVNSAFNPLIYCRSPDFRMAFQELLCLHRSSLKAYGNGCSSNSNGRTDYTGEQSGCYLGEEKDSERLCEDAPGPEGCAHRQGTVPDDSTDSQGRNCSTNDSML
Assay: cAMP assay in CHO cells transfected with the porcine beta-2 adrenoceptor (DiscoveRx Hit Hunter cAMP II)
Conditions: CHO cells transfected with porcine beta-2 adrenoceptor, 30 minutes incubation with compound
propertyName: pEC50
As a rule, pEC50 stands for the negative log10 of the concentration, concentration in M.

Lookup result for CC(CCc1ccc[nH]c1=O)NC1CCn2c(=O)[nH]c3cccc(c32)C1O (stereo not shown) ; measured pEC50: 7.25

Lookup result for CC(CCc1ccccn1)NC1CCn2c(=O)[nH]c3cccc(c32)C1O (stereo not shown) ; measured pEC50: 6.74

Lookup result for O=c1[nH]c2cccc3c2n1CC[C@@H](NCCc1c[nH]c2ccccc12)[C@@H]3O (racemic) [Example 40b] ; measured pEC50: 7.55

Lookup result for CC(CCc1c[nH]c2cnccc12)N[C@@H]1CCn2c(=O)[nH]c3cccc(c32)[C@H]1O (mixture of isomers) [Example 32c] ; measured pEC50: 8.06

----------
Biological target: porcine beta-2 adrenoceptor (Sus scrofa)
Assay: cAMP assay in CHO cells transfected with the porcine beta-2 adrenoceptor (DiscoveRx Hit Hunter cAMP II)
Details: CHO cells transfected with porcine beta-2 adrenoceptor, 30 minutes incubation with compound
pEC50: −log10 of the molar value.
Outcome: label 1 for pEC50 of at least 7; label 0 for anything lower.

Prompt: Confirm if pEC50 reported for the molecule CC(CCc1cncs1)N[C@@H]1CCn2c(=O)[nH]c3cccc(c32)[C@H]1O (single isomer, unassigned) [Example 6a] is 7 or above.
Response: label 0

Prompt: Confirm if pEC50 reported for the molecule CC(CCc1c[nH]c2ccccc12)NC1CCn2c(=O)[nH]c3cccc(c32)C1O (single isomer, unassigned) [Example 4b] is 7 or above.
Response: label 1

Prompt: Confirm if pEC50 reported for the molecule CC(CCc1cccc2cc[nH]c12)N[C@@H]1CCn2c(=O)[nH]c3cccc(c32)[C@H]1O (single isomer, unassigned) [Example 38c] is 7 or above.
Response: label 0

Prompt: Confirm if pEC50 reported for the molecule Cc1[nH]c2ccc(F)cc2c1CCC(C)N[C@@H]1CCn2c(=O)[nH]c3cccc(c32)[C@H]1O (single isomer, unassigned) [Example 54] is 7 or above.
Response: label 1

Prompt: Confirm if pEC50 reported for the molecule CC(CCn1cnc2cc(F)c(F)cc21)N[C@@H]1CCn2c(=O)[nH]c3cccc(c32)[C@H]1O (single isomer, unassigned) [Example 79] is 7 or above.
Response: label 1

Prompt: Confirm if pEC50 reported for the molecule CNc1nc(CC(C)NC2CCn3c(=O)[nH]c4cccc(c43)C2O)ns1 (stereo not shown) [Example 10] is 7 or above.
Response: label 0

----------
Target: bovine beta-2 adrenoceptor (Bos taurus, UniProt Q28044)
Test: cAMP assay in CHO cells transfected with the bovine beta-2 adrenoceptor (DiscoveRx Hit Hunter cAMP II)
Conditions: CHO cells transfected with bovine beta-2 adrenoceptor, 30 minutes incubation with compound
I'd be grateful if you could share measured EC50 for these entries.
# number only, unit nM dropped from output

Lookup result for CC(CCc1cn(C)c2ccccc12)N[C@@H]1CCn2c(=O)[nH]c3cccc(c32)[C@H]1O (mixture of isomers) [Example 14b] ; measured EC50: 8

Lookup result for COc1ccc2[nH]cc(CCC(C)N[C@@H]3CCn4c(=O)[nH]c5cccc(c54)[C@H]3O)c2c1 (mixture of isomers) ; measured EC50: 50

Lookup result for Cc1nn(C)cc1CCC(C)N[C@@H]1CCn2c(=O)[nH]c3cccc(c32)[C@H]1O (single isomer, unassigned) ; measured EC50: 20

Lookup result for CC(CCc1cccc(=O)[nH]1)N[C@@H]1CCn2c(=O)[nH]c3cccc(c32)[C@H]1O (mixture of isomers) [Example 7c] ; measured EC50: 3.8

----------
Molecular target: porcine beta-2 adrenoceptor (Sus scrofa, UniProt Q28997)
Assay: cAMP assay in CHO cells transfected with the porcine beta-2 adrenoceptor (DiscoveRx Hit Hunter cAMP II)
Conditions: CHO cells transfected with porcine beta-2 adrenoceptor, 30 minutes incubation with compound
pEC50: −log10 of the molar value.
Consider the following partition of reported pEC50 into named classes: low band = under 7, middle band = from 7 up to 8, high band = 8 and over

Prompt: The entry to classify is CC(CCc1c[nH]c2ccc(F)cc12)N[C@@H]1CCn2c(=O)[nH]c3cccc(c32)[C@H]1O (mixture of isomers) ; which class holds it?
Response: high band

Prompt: The entry to classify is CC(CCn1ccnc1)N[C@@H]1CCn2c(=O)[nH]c3cccc(c32)[C@H]1O (mixture of isomers) ; which class holds it?
Response: high band

Prompt: The entry to classify is CC(CCn1cnc2cnccc21)N[C@@H]1CCn2c(=O)[nH]c3cccc(c32)[C@H]1O (single isomer, unassigned) ; which class holds it?
Response: high band

Prompt: The entry to classify is CC(CCc1c[nH]c2ccncc12)N[C@@H]1CCn2c(=O)[nH]c3cccc(c32)[C@H]1O (mixture of isomers) [Example 31c] ; which class holds it?
Response: middle band

Prompt: The entry to classify is CC(CCc1cncnc1)N[C@@H]1CCn2c(=O)[nH]c3cccc(c32)[C@H]1O (single isomer, unassigned) ; which class holds it?
Response: high band

Prompt: The entry to classify is CC(CCc1c[nH]c2cnccc12)N[C@@H]1CCn2c(=O)[nH]c3cccc(c32)[C@H]1O (single isomer, unassigned) [Example 32b] ; which class holds it?
Response: low band

Prompt: The entry to classify is CC(CCc1cccc2cc[nH]c12)N[C@@H]1CCn2c(=O)[nH]c3cccc(c32)[C@H]1O (mixture of isomers) [Example 38d] ; which class holds it?
Response: high band

Prompt: The entry to classify is CC(CCc1c[nH]c2ccncc12)N[C@@H]1CCn2c(=O)[nH]c3cccc(c32)[C@H]1O (single isomer, unassigned) [Example 31b] ; which class holds it?
Response: middle band

Prompt: The entry to classify is CCOC(=O)c1[nH]c2cc(Cl)ccc2c1CCN[C@@H]1CCn2c(=O)[nH]c3cccc(c32)[C@H]1O (racemic) ; which class holds it?
Response: middle band

Prompt: The entry to classify is CC(CCc1cncc(N)c1)N[C@@H]1CCn2c(=O)[nH]c3cccc(c32)[C@H]1O (single isomer, unassigned) ; which class holds it?
Response: high band

Prompt: The entry to classify is Cc1ncc(CCC(C)N[C@@H]2CCn3c(=O)[nH]c4cccc(c43)[C@H]2O)s1 (single isomer, unassigned) [Example 28b] ; which class holds it?
Response: low band

Prompt: The entry to classify is CC(CCc1cn(C)c2ccccc12)NC1CCn2c(=O)[nH]c3cccc(c32)C1O (stereo not drawn) [Example 14a] ; which class holds it?
Response: middle band

Prompt: The entry to classify is Cc1ccc2[nH]cc(CCC(C)N[C@@H]3CCn4c(=O)[nH]c5cccc(c54)[C@H]3O)c2c1 (mixture of isomers) ; which class holds it?
Response: middle band

Prompt: The entry to classify is Cc1cc(CCC(C)N[C@@H]2CCn3c(=O)[nH]c4cccc(c43)[C@H]2O)ccn1 (single isomer, unassigned) ; which class holds it?
Response: middle band

Prompt: The entry to classify is CC(CCc1cscn1)N[C@@H]1CCn2c(=O)[nH]c3cccc(c32)[C@H]1O (mixture of isomers) ; which class holds it?
Response: low band

Prompt: The entry to classify is Cc1nn(C)c(C)c1CCC(C)N[C@@H]1CCn2c(=O)[nH]c3cccc(c32)[C@H]1O (single isomer, unassigned) [Example 9b] ; which class holds it?
Response: high band

Prompt: The entry to classify is COc1ccc2[nH]cc(CCC(C)N[C@@H]3CCn4c(=O)[nH]c5cccc(c54)[C@H]3O)c2c1 (mixture of isomers) ; which class holds it?
Response: middle band

Prompt: The entry to classify is CC(CC(C)(C)c1cn(C)c2ccccc12)N[C@@H]1CCn2c(=O)[nH]c3cccc(c32)[C@H]1O (mixture of isomers) ; which class holds it?
Response: middle band

Prompt: The entry to classify is Cc1cc(C)n(CCC(C)N[C@@H]2CCn3c(=O)[nH]c4cccc(c43)[C@H]2O)n1 (single isomer, unassigned) ; which class holds it?
Response: low band

Prompt: The entry to classify is CC(CCn1cnc2ccccc21)N[C@@H]1CCn2c(=O)[nH]c3cccc(c32)[C@H]1O (single isomer, unassigned) ; which class holds it?
Response: high band
